Origin of measurements: patent US20250120932A1

Test: Pharmacokinetic study in cynomolgus monkeys after oral (nasogastric) gavage, sublingual and intravenous administration
Assay type: in vivo
Conditions: both sexes, cynomolgus monkey, plasma, oral, 30 mg/kg, Plasma Bumetanide Dibenzylamide concentration, Median, monkey, NG 30 mg/kg, First Formulation (Form 1), 24.00 h, N=4
Experimental: A pharmacokinetic study was done in cynomolgus monkeys following single oral (nasogastric) gavage, sublingual, and intravenous administration. […] Calibration curves, blanks, and analytical QCs were prepared in monkey plasma (K2EDTA). The extracts were evaporated to dryness, reconstituted, and then analyzed by LC-MS/MS. The calibration range was 0.250-250 ng/mL for both analytes. If the criteria for either the calibration curve or the analytical QCs were not met, the analytical run was rejected. […]
reported_property: concentration at 24 h (ng/mL)
Dear colleague, please return just the value in ng/mL, with no unit written.

What value of measured concentration at 24 h is listed for CCCCNc1cc(C(=O)N(Cc2ccccc2)Cc2ccccc2)cc(S(N)(=O)=O)c1Oc1ccccc1 [Bumetanide Dibenzylamide] ?
5.38

====

Test: Pharmacokinetic profile after single intravenous or oral gavage dose in rats
Details: male, Hsd: Sprague Dawley, rat, plasma, po, 30 mg/kg, Plasma Bumetanide Dibenzylamide concentration, male rats, oral 30 mg/kg, 4 h
reported_property: concentration at 4 h

What value of measured concentration at 4 h is listed for CCCCNc1cc(C(=O)N(Cc2ccccc2)Cc2ccccc2)cc(S(N)(=O)=O)c1Oc1ccccc1 [Bumetanide Dibenzylamide] ?
4.56 ng/mL

====

Assay: Pharmacokinetic study in cynomolgus monkeys after oral (nasogastric) gavage, sublingual and intravenous administration
Format: in vivo
Conditions: both sexes, cynomolgus monkey, plasma, oral, 30 mg/kg, Plasma Bumetanide Dibenzylamide concentration, Median, monkey, NG 30 mg/kg, Second Formulation (Form 3), 24.00 h, N=4
reported_property: concentration at 24 h (ng/mL)
Dear colleague, please return just the value in ng/mL, with no unit written.

What value of measured concentration at 24 h is listed for CCCCNc1cc(C(=O)N(Cc2ccccc2)Cc2ccccc2)cc(S(N)(=O)=O)c1Oc1ccccc1 [Bumetanide Dibenzylamide] ?
10

====

Experiment: Crossover pharmacokinetic study of Bumetanide Dibenzylamide formulations (IN, SL, IM, PO, SC, IR) in Beagle dogs, plasma LC-MS/MS
Assay type: in vivo
Conditions: both sexes, Beagle, dog, plasma, po, 30 mg, PO capsules
reported_property: AUC(0-t) (ng·h/mL)
Dear colleague, please return just the value in ng·h/mL, with no unit written.

What value of measured AUC(0-t) is listed for CCCCNc1cc(C(=O)N(Cc2ccccc2)Cc2ccccc2)cc(S(N)(=O)=O)c1Oc1ccccc1 [Bumetanide Dibenzylamide] ?
956

====

Assay: Pharmacokinetic study in cynomolgus monkeys after oral (nasogastric) gavage, sublingual and intravenous administration
Assay type: in vivo
Conditions: both sexes, cynomolgus monkey, plasma, oral, 30 mg/kg, Plasma Bumetanide Dibenzylamide concentration, Median, monkey, NG 30 mg/kg, Second Formulation (Form 3), 32.00 h, N=4
reported_property: concentration at 32 h (ng/mL)
Dear colleague, please return just the value in ng/mL, with no unit written.

What value of measured concentration at 32 h is listed for CCCCNc1cc(C(=O)N(Cc2ccccc2)Cc2ccccc2)cc(S(N)(=O)=O)c1Oc1ccccc1 [Bumetanide Dibenzylamide] ?
1.86

====

Assay: Pharmacokinetic study in cynomolgus monkeys after oral (nasogastric) gavage, sublingual and intravenous administration
Type: in vivo
Conditions: both sexes, cynomolgus monkey, plasma, oral, 30 mg/kg, Plasma Bumetanide Dibenzylamide concentration, Median, monkey, NG 30 mg/kg, First Formulation (Form 1), 32.00 h, N=4
reported_property: concentration at 32 h (ng/mL)
Dear colleague, please return just the value in ng/mL, with no unit written.

What value of measured concentration at 32 h is listed for CCCCNc1cc(C(=O)N(Cc2ccccc2)Cc2ccccc2)cc(S(N)(=O)=O)c1Oc1ccccc1 [Bumetanide Dibenzylamide] ?
3.75

====

Experiment: Pharmacokinetic study in cynomolgus monkeys after oral (nasogastric) gavage, sublingual and intravenous administration
Format: in vivo
Conditions: cynomolgus, cynomolgus monkey, plasma, intravenous, 2 mg/kg, Plasma Bumetanide Dibenzylamide concentration, Median, monkey, dose column 2 mg/kg (title 30 mg/kg), Third Formulation (Form 4), 32.00 h, N=4
reported_property: concentration at 32 h (ng/mL)
Dear colleague, please return just the value in ng/mL, with no unit written.

What value of measured concentration at 32 h is listed for CCCCNc1cc(C(=O)N(Cc2ccccc2)Cc2ccccc2)cc(S(N)(=O)=O)c1Oc1ccccc1 [Bumetanide Dibenzylamide] ?
0.917

====

Assay: Pharmacokinetic study in cynomolgus monkeys after oral (nasogastric) gavage, sublingual and intravenous administration
Type: in vivo
Settings: both sexes, cynomolgus monkey, plasma, oral, 30 mg/kg, Plasma Bumetanide Dibenzylamide concentration, Mean, monkey, NG 30 mg/kg, First Formulation (Form 1), 0.25 h, N=4
reported_property: concentration at 0.25 h
Please report the result as a number followed by the unit.

What value of measured concentration at 0.25 h is listed for CCCCNc1cc(C(=O)N(Cc2ccccc2)Cc2ccccc2)cc(S(N)(=O)=O)c1Oc1ccccc1 [Bumetanide Dibenzylamide] ?
4.31 ng/mL

====

Test: Crossover pharmacokinetic study of Bumetanide Dibenzylamide formulations (IN, SL, IM, PO, SC, IR) in Beagle dogs, plasma LC-MS/MS
Type: in vivo
Conditions: both sexes, Beagle, dog, plasma, po, 30 mg, PO capsules, 30 mg, read-out: Cmax
reported_property: Cmax (ng/mL)
Dear colleague, please return just the value in ng/mL, with no unit written.

What value of measured Cmax is listed for CCCCNc1cc(C(=O)N(Cc2ccccc2)Cc2ccccc2)cc(S(N)(=O)=O)c1Oc1ccccc1 [Bumetanide Dibenzylamide] ?
218

====

Test: Pharmacokinetic study in cynomolgus monkeys after oral (nasogastric) gavage, sublingual and intravenous administration
Format: in vivo
Conditions: cynomolgus monkey, plasma, other: sublingual, 5 mg/kg, Plasma Bumetanide Dibenzylamide concentration, monkey, SL, dose column 5 mg/kg (title 30 mg/kg), Fourth Formulation (Form 2), 0.25 h, individual animals
reported_property: concentration at 0.25 h (ng/mL)
Dear colleague, please return just the value in ng/mL, with no unit written.

What value of measured concentration at 0.25 h is listed for CCCCNc1cc(C(=O)N(Cc2ccccc2)Cc2ccccc2)cc(S(N)(=O)=O)c1Oc1ccccc1 [Bumetanide Dibenzylamide] ?
0

====

Experiment: Pharmacokinetic profile after single intravenous or oral gavage dose in rats
Conditions: male, Sprague Dawley, rat, plasma, iv, 10 mg/kg, Plasma Bumetanide Dibenzylamide concentration, male rats, IV bolus 10 mg/kg, 1 h
reported_property: concentration at 1 h (ng/mL)
Dear colleague, please return just the value in ng/mL, with no unit written.

What value of measured concentration at 1 h is listed for CCCCNc1cc(C(=O)N(Cc2ccccc2)Cc2ccccc2)cc(S(N)(=O)=O)c1Oc1ccccc1 [Bumetanide Dibenzylamide] ?
993

====

Test: Pharmacokinetic study in cynomolgus monkeys after oral (nasogastric) gavage, sublingual and intravenous administration
Assay type: in vivo
Details: both sexes, cynomolgus monkey, plasma, oral, 30 mg/kg, Plasma Bumetanide Dibenzylamide concentration, monkey, NG 30 mg/kg, First Formulation (Form 1), 0.00 h, individual animals
reported_property: concentration at 0 h (ng/mL)
Dear colleague, please return just the value in ng/mL, with no unit written.

What value of measured concentration at 0 h is listed for CCCCNc1cc(C(=O)N(Cc2ccccc2)Cc2ccccc2)cc(S(N)(=O)=O)c1Oc1ccccc1 [Bumetanide Dibenzylamide] ?
0

====

Test: Pharmacokinetic study in cynomolgus monkeys after oral (nasogastric) gavage, sublingual and intravenous administration
Assay type: in vivo
Conditions: both sexes, cynomolgus monkey, plasma, oral, 30 mg/kg, Plasma Bumetanide Dibenzylamide concentration, Mean, monkey, NG 30 mg/kg, Second Formulation (Form 3), 0.00 h, N=4
reported_property: concentration at 0 h (ng/mL)
Dear colleague, please return just the value in ng/mL, with no unit written.

What value of measured concentration at 0 h is listed for CCCCNc1cc(C(=O)N(Cc2ccccc2)Cc2ccccc2)cc(S(N)(=O)=O)c1Oc1ccccc1 [Bumetanide Dibenzylamide] ?
0

====

Assay: Pharmacokinetic study in cynomolgus monkeys after oral (nasogastric) gavage, sublingual and intravenous administration
Format: in vivo
Conditions: cynomolgus monkey, plasma, intravenous, 2 mg/kg, Plasma Bumetanide Dibenzylamide concentration, Mean, monkey, dose column 2 mg/kg (title 30 mg/kg), Third Formulation (Form 4), 0.08 h, N=4
reported_property: concentration at 0.08 h (ng/mL)
Dear colleague, please return just the value in ng/mL, with no unit written.

What value of measured concentration at 0.08 h is listed for CCCCNc1cc(C(=O)N(Cc2ccccc2)Cc2ccccc2)cc(S(N)(=O)=O)c1Oc1ccccc1 [Bumetanide Dibenzylamide] ?
1440

====

Test: Crossover pharmacokinetic study of Bumetanide Dibenzylamide formulations (IN, SL, IM, PO, SC, IR) in Beagle dogs, plasma LC-MS/MS
Format: in vivo
Details: both sexes, Beagle, dog, plasma, 30 mg, SL, 30 mg, read-out: t½ (converted)
reported_property: half-life
Please report the result as a number followed by the unit.

What value of measured half-life is listed for CCCCNc1cc(C(=O)N(Cc2ccccc2)Cc2ccccc2)cc(S(N)(=O)=O)c1Oc1ccccc1 [Bumetanide Dibenzylamide] ?
5.26 h
